Each record here notes measured inhibition.
- protocol notes: M. tuberculosis growth inhibition, HTS (AID 449762);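 further: bacterial growth assessed after seven days of incubation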
- details: M. tuberculosis H37Rv growth inhibition, 7H9 media; at 25 µM; hits give high values
In all, about 330,000 compounds went through this assay and about 1,900 (0.58%) were called active. Another 4% or so got no clear call; they are omitted. Not all results are given here. Results with a measured potency or affinity are listed apart.
Your answer is read as %, so omit the unit and give the number.

Identify inhibition associated with the compound O=C(/C=C/c1ccc(OCCCF)cc1)Nc1ccnc(-c2cccnc2)n1
-3.34

---
Indicate its recorded inhibition; the compound in question is COc1ccc(CNC(=O)/C=C/c2ccc(OCCCF)cc2)cc1
0.02

Give inhibition for CC1=C(/C=C/C(C)=C/C=C/C(C)=C\C(=O)O)C(C)(C)CCC1
69.3

Please indicate inhibition recorded for COc1cccc(C(=O)/C=C/Nc2ccc(S(=O)(=O)Nc3nc(C)cc(C)n3)cc2)c1
1.1

Consider the compound CC1CCN(C(=O)c2ncn(Cc3ccccc3)c2C(=O)N2CCC(C)CC2)CC1 . State its measured inhibition.
5.23
